# targetOrSystem: Aldo-keto reductase family 1 member B1 (Rattus norvegicus)
# assayText: Inhibitory activity against purified rat lens aldose reductase (RLAR)
quantityKind: IC50 (µM)

Observe how each entry below is paired with its result.
[[record]]
compound = "O=C(O)C1c2ccccc2-c2ccccc21"
targetorsystem = "Aldo-keto reductase family 1 member B1 (Rattus norvegicus)"
unitname = "µM"
recordedvalue = 182

[[record]]
compound = "O=C(O)C1CC12c1ccccc1-c1ccccc12 (centres undefined)"
targetorsystem = "Aldo-keto reductase family 1 member B1 (Rattus norvegicus)"
unitname = "µM"
recordedvalue = 11.7


(A) O=C(O)/C=C1\c2ccccc2-c2ccc(F)cc21
(B) O=C(O)CC1c2cc(F)ccc2-c2ccc(F)cc21
Problem: Returns: the argument ( A or B ) having the larger IC50. Field: selected label. Fill in the label of the entry you choose.
Result: A

Ref: ChEMBL document CHEMBL1127671
